method: NCI Yeast Anticancer Drug Screen. Data for the sgs1 mgt1 strain (AID 161);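 also: 0% = growth of cultures given vehicle only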
protocol.conditions: S. cerevisiae sgs1 mgt1 strain, at 5.0 µM (retest, dose inferred, filed as 0.5), hits give high values
The panel holds about 79,000 compounds, 15% with a hit somewhere; the sample as a whole holds those more often. The source made the active and inactive calls. Rule as the data show it: active = growth inhibition above about 70%; inactive = the rest.
parameter.measured: growth inhibition

Field: example entries. Status: answers known.
O=C(CCC(=O)c1ccc(O)cc1)Oc1ccc(O)cc1; -8% (inactive)
Cc1ccnc(NS(=O)(=O)c2ccc(Nc3c4ccccc4nc4ccccc34)cc2)n1; 14% (inactive)

// switching to the query molecule
Task: Requested field: growth inhibition. Item: CCC(C)/C(C)=N/NC(N)=O (stereo not drawn)
Output: 5% (inactive)

====

method: NCI Yeast Anticancer Drug Screen. Data for the rad50 strain (AID 155);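 also: 0% = growth of vehicle-only cultures of the same strain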
protocol.conditions: S. cerevisiae rad50 strain growth inhibition; at 11.0 µM
This is part of a sample that, as a whole, favours compounds with a hit. Of some 79,000 tested, about 15% had one in any assay. Active and inactive are the calls of the source. Rule as the data show it: active = growth inhibition above about 70%; inactive = the rest.
In this exercise, the only acceptable responses are label 1 = active, label 0 = inactive

Recorded results for 3 compounds are shown here.
Cc1cc(NCCCN(C)C)c2ccc3c(ccc4c(NCCCN(C)C)cc(C)nc43)c2n1; label 0
Cc1cccc[c]1[Sn]([Cl])([S]/C(C#N)=N/N=C/c1ccc(N(C)C)cc1)[c]1ccccc1C; label 0
CCCCCCCCCCCCCCCCOCC(Cl)COP(=O)(O)OP(=O)(O)OCC1OC(n2cnc3c(N)ncnc32)C(O)C1O (stereo not drawn); label 1

Task: Fill in: this test's call for [Cl][Pt+2][Cl].[NH-]CC1(C[NH-])CCCCC1 is ___
Output: label 1

Task: Fill in: this test's call for COc1ccc(C(=O)NCCN(C)C)c2nc3ccccc3cc12 is ___
Output: label 1

Task: Fill in: this test's call for O=C(N/N=C/c1ccc2c(c1)CCC2)c1ccccc1[N+](=O)[O-] is ___
Output: label 0

====

Reported growth inhibition values follow for various compounds
method: NCI Yeast Anticancer Drug Screen. Data for the bub3 strain (AID 167)
protocol.conditions: S. cerevisiae bub3 mutant strain, at 1.2 µM, hits give high values
The panel holds about 79,000 compounds, 15% with a hit somewhere; the sample as a whole holds those more often. Starred links: 1 amine or outer side, 2 acyl side, 3 side chain; linkers in the order of their positions; H or OH if unused. Positions of bridges follow the written chain, without caps; N, C: chain ends. Non-standard residues stand in square brackets, D forms with d. Residues, ends and D or L forms follow the SMILES beside them. Chains are numbered I, II in the order given. Actinocin(9to1) = Cc1c2oc3c(C)ccc(C(=O)[*:1])c3nc-2c(C(=O)[*:2])c(N)c1=O; aThr = C[C@H](O)[C@H](N)C(=O)O; NMeV = CN[C@H](C(=O)O)C(C)C; Sar = CNCC(=O)O
Enter your answer as a number in %; do not include the unit.

CN(C)N=Nc1ccc(NC=O)cc1; 15
O=S(=O)(CCC[C@H]1[C@@H](CCOCc2ccccc2)C2CCCN1O2)c1ccccc1 (stereo partly specified); 1
Cn1c(COc2ccc(/C=N/NC(=O)CCC(=O)N/N=C/c3ccc(OCc4c[n+]5ccccc5n4C)cc3)cc2)c[n+]2ccccc12; -3
O=C(Nc1ccn(C2CC(O)C(COC(c3ccccc3)(c3ccccc3)c3ccccc3)O2)c(=O)n1)c1ccccc1 (stereo unspecified); -34
COc1cc(C(C)(C)C)cc(OC)c1C(O)(c1c(OC)cc(C(C)(C)C)cc1OC)c1c(OC)cc(C(C)(C)C)cc1OC; -25
CC(O)CN1C(=O)c2cccc3cc([N+](=O)[O-])cc(c23)C1=O (stereo unspecified); -8

Task: Requested field: growth inhibition. Item: Cc1cnc(/C=N\NC(N)=S)c2cccc(N)c12
Output: -69

Task: Requested field: growth inhibition. Item: COc1ccc(CCN2C(=O)C=CC2=O)cc1OC
Output: 15

Task: Requested field: growth inhibition. Item: Cc1cccc[c]1[Sn]([Cl])([S]/C(C#N)=N/N=C/c1ccc(N(C)C)cc1)[c]1ccccc1C
Output: -8

Task: Requested field: growth inhibition. Item: Oc1ccc(Br)cc1C=Nc1cccc(C(F)(F)F)c1
Output: -6

Task: Requested field: growth inhibition. Item: O=C(O)NCC1CCCCC1 (tested in a mixture with another compound)
Output: -4

Task: Requested field: growth inhibition. Item: BrC/C=C/C[P+](c1ccccc1)(c1ccccc1)c1ccccc1
Output: -5

Task: Requested field: growth inhibition. Item: Cc1ccnc(NS(=O)(=O)c2ccc(Nc3c4ccccc4nc4ccccc34)cc2)n1
Output: -12

Task: Requested field: growth inhibition. Item: O=C1OC(/C=C/c2ccccc2)Sc2ccccc21 (stereo unspecified)
Output: 5

Task: Requested field: growth inhibition. Item: CC1(C)CC(=O)C(C(CC(c2ccccc2)c2cc3c(cc2O)OCO3)C2=C(O)CC(C)(C)CC2=O)=C(O)C1 (stereo unspecified)
Output: -3

Task: Requested field: growth inhibition. Item: CCCCCCCCCC/C=C\CC(=O)O
Output: -2

Task: Requested field: growth inhibition. Item: Cc1c2oc3c(C)ccc(C(=O)N[C@@H]4C(=O)N[C@H](C(C)C)C(=O)N5CCC[C@H]5C(=O)N(C)CC(=O)N(C)[C@@H](C(C)C)C(=O)O[C@H]4C)c3nc-2c(C(=O)N[C@@H]2C(=O)N[C@H](C(C)C)C(=O)N3CCC[C@H]3C(=O)N(C)CC(=O)N(C)[C@@H](C(C)C)C(=O)O[C@H]2C)c(N)c1=O (I: [aThr][dV]P[Sar][NMeV] / II: [aThr][dV]P[Sar][NMeV]; ester I:1-I:C, II:1-II:C; linker I:N-II:N via Actinocin(9to1))
Output: 3

Task: Requested field: growth inhibition. Item: CCCC(=O)OC(OC(=O)CCC)c1ccc([N+](=O)[O-])o1
Output: -4

Task: Requested field: growth inhibition. Item: CC(C)OC(CCC#N)c1ccc(Cl)cc1 (stereo unspecified)
Output: -18

Task: Requested field: growth inhibition. Item: Cc1nc2ccc(NCCN(C)C)c3c(=O)c4ccccc4n1c23
Output: 5

Task: Requested field: growth inhibition. Item: CCCCCC(=O)C(C)(c1nc2n(c1O)/C(=N/C(=O)Nc1ccc(Cl)cc1)N=N2)c1nc2n(c1O)/C(=N/C(=O)Nc1ccc(Cl)cc1)N=N2
Output: -6

// data source = PubChem BioAssay (NCI)
